B1: Hairpin Ribozyme (parent)
chain: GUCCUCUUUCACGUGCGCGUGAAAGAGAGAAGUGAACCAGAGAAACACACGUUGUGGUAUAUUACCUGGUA

variants of: B1; test: self-cleavage, relative activity (ratio to wild type); higher = more cleavage; co-transcriptional
Would you mind telling me the reported self-cleavage of each entry?
One number for each entry.

Take a look at these entries with their results.
| SEQUENCE CODE | EXPERIMENTAL VALUE |
| --- | --- |
| GUCCUCCUUCACGUGCGCGUGAAAGAGAGAAGUGAACCAGAGAAACACACGUUGAGGUAUAUUACCUGGUA [U7C U55A] | 0.167 |
| UUCCUCUUUCACGUGCGCGUGAAAGAGAGAAGUGAUCCAGAGAAACACACGUUGUGGUAUAUUACCUGGUA [G1U A36U] | 0.224 |
| GUCCUCCUUCACGUGCGCGUGAAAGAGAGAAGUGUACCAGAGAAACACACGUUGUGGUAUAUUACCUGGUA [U7C A35U] | 0.523 |
| GUCCUCUUUCACGUGCGCGUGAAAGAGAGAAGUGAACCAGAGAAUCACACGUUGUAGUAUAUUACCUGGUA [A45U G56A] | 0.166 |
| GUCCUCUUCCACGUGCGCGUGAAAUAGAGAAGUGAACCAGAGAAACACACGUUGUGGUAUAUUACCUGGUA [U9C G25U] | 0.386 |
| GUCCUCUUUCACGUGCGCGUGAAAGAGAGAAGUGAACCCGAGAAACACACGUUGAGGUAUAUUACCUGGUA [A39C U55A] | 0.148 |
| GUCCUCUUUGGCGUGCGCGUGAAAGAGAGAAGUGAACCAGAGAAACACACGUUGUGGUAUAUUACCUGGUA [C10G A11G] | 0.655 |
| GUCCUCUUUCACGUGCGCGUGAAAGAGAAAAGUGAACCAGAGAAAGACACGUUGUGGUAUAUUACCUGGUA [G29A C46G] | 0.0584 |

For every listed record, write down its self-cleavage.
1. GUCCUCUUUCGCGUGCGCGUGAAAGAGAGAAGUGAACCAGAGAAACACACGUUGUGAUAUAUUACCUGGUA [A11G G57A]
2. GUCCUCCUUCACGUGCGCGUGAAAGAGAGAGGUGAACCAGAGAAACACACGUUGUGGUAUAUUACCUGGUA [U7C A31G]
3. GUCCUCUUUCACGUGCGCGUGAAAGAUAGAAGUGAACCGGAGAAACACACGUUGUGGUAUAUUACCUGGUA [G27U A39G]
4. GUCCUCUUUCACGUGCGCGUGAAAGAGAGAAGUGAACCGGAGAAACGCACGUUGUGGUAUAUUACCUGGUA [A39G A47G]
5. GACCUCUUUCACGUGCGCCUGAAAGAGAGAAGUGAACCAGAGAAACACACGUUGUGGUAUAUUACCUGGUA [U2A G19C]
6. GUCCUCUUUCACGUGCGCGUGAAAGAGAGAAGUGAACCAGAGAAACACACGUUGUGGUGUAUAACCUGGUA [A59G U63A]

1: 0.159; 2: 0.525; 3: 0.149; 4: 0.116; 5: 0.106; 6: 0.262

Look at each variant and report its self-cleavage.
1. GUCUUCUUUUACGUGCGCGUGAAAGAGAGAAGUGAACCAGAGAAACACACGUUGUGGUAUAUUACCUGGUA [C4U C10U]
2. GUCCUCUUUCACGUGCACGUGAAAGAGAGAAGUGAACCAGAGAUACACACGUUGUGGUAUAUUACCUGGUA [G17A A44U]
3. GUCCUCUUUCACUUGCGCGUGAAAGAGAGAAGUGAACCAGAGAAACACACGUUGUGGUAUAGUACCUGGUA [G13U U62G]
4. GUCCUCUUUCACGUGCGCGUGAAAGAGAGAAGUGAACCAGAGAAAGACACGUUGUGGUAUCUUACCUGGUA [C46G A61C]
5. GUCCUCUUUCACGUGCGCGUGAAAGAGAGAAGUGAACCAGAGAAACACACGUUGUGGUGUUUUACCUGGUA [A59G A61U]
6. GUCCUCUUUCAAGUGCGCGUGAAAGAGAGAAGUGAACCAGAGAAACACACGUUGUGCUAUAUUACCUGGUA [C12A G57C]
7. GUCCUCUUUCACGUGCGCGUGAAAGAGAGAAGUCAACCAGUGAAACACACGUUGUGGUAUAUUACCUGGUA [G34C A41U]

[0.224, 0.183, 0.102, 0.154, 0.141, 0.17, 1.42]

Could you report self-cleavage for every entry in the following list?
1. GUCCUCUUUCACGUGCGCGUGAAAGAGAGAAGUGAACCAGUGAAACACACGUUGUGGUAUAUUACCGGGUA [A41U U67G]
2. GUUCUCUUUCACGUGCGCGUGAAAGAGAGAAGUGAACCAGAGAAACAGACGUUGUGGUAUAUUACCUGGUA [C3U C48G]
3. GUCCUCUUUCACGUGCGCGUGAAAGAGAGAAUUGAACCAUAGAAACACACGUUGUGGUAUAUUACCUGGUA [G32U G40U]
4. GUCCUCUUUCACGUGCGCGUGAAAGAGAUAAGUGAACCAGAGAAACACACGUUGUUGUAUAUUACCUGGUA [G29U G56U]
5. GUCCUCUUUCACGUGCGCGUGAAAGAGAGAAGUGAACAAGAGAAACACACGUUGUGGCAUAUUACCUGGUA [C38A U58C]
6. GUCCUCUUUCACGUGCGCGUGAAAGAGAGAAGUGACCCAGAGAAACACACGUUGUGGUAUAUUACCUGAUA [A36C G69A]
7. GUCCUCUUUCACGUGCGCGUGUAAGAGAGAGGUGAACCAGAGAAACACACGUUGUGGUAUAUUACCUGGUA [A22U A31G]
8. GUCCUCUUUCACGUGCGCGUGAAAGAGAGAUGUGAACCAGAGAAACACACGUUGUGGUAUAUUACCAGGUA [A31U U67A]

1: 0.534; 2: 0.159; 3: 0.152; 4: 0.143; 5: 0.181; 6: 0.24; 7: 0.589; 8: 0.1

Please supply self-cleavage for each of the following items, keeping them in order.
1. GUCCUCUAUCACGUGCGCGUGAAAGAGAGAAGUGAACCAGAGAAACACACGUUGUCGUAUAUUACCUGGUA [U8A G56C]
2. GUCCUCUUUCACGUGCGCGUGAAAGAGAGAAGUGAACCAGAGAAACACACGUUGUGGUAUAUUACCAGGUC [U67A A71C]
3. GUCCUCUUUGACGUGCGCGUGAAAGAGAGAAAUGAACCAGAGAAACACACGUUGUGGUAUAUUACCUGGUA [C10G G32A]
4. GUCCUCUUUCACGGGCGCGUGAAAGAGACAAGUGAACCAGAGAAACACACGUUGUGGUAUAUUACCUGGUA [U14G G29C]

[0.196, 0.381, 0.163, 0.169]

Provide reported self-cleavage for each item, in the same order as listed.
1. GUCCUCUUUCACGUGCGCGUGAAAGAGGGAAGUGAACCAGAGAACCACACGUUGUGGUAUAUUACCUGGUA [A28G A45C]
2. GUCCUCUGUCACGUGCGCGUGAAAGAGAGAAGUGAACCAGAGAAACUCACGUUGUGGUAUAUUACCUGGUA [U8G A47U]
3. GUCCUCUUUCACGUGCGCGUGAAAGAGAGAAGUGAACCAGAGAAACACAUGUUGCGGUAUAUUACCUGGUA [C50U U55C]

[0.279, 0.168, 0.615]

Hi! Can you tell me self-cleavage for each of these variants?
1. GUCCUCUCUCACGUGCGCGUCAAAGAGAGAAGUGAACCAGAGAAACACACGUUGUGGUAUAUUACCUGGUA [U8C G21C]
2. GUCCUCUUUCACGUGCGCGUGAAAGAGAGAAGUGAACCAGCGAAACACACGUUGUGGUAUAUUACAUGGUA [A41C C66A]
3. GUCCUCUUUCACGUGCGCGUGAAAGAGAGAAGGGAACCAGAGAAACACACGUUGUGGUAUAUUACGUGGUA [U33G C66G]
4. GUCCUCUUUCACGUGCGCGUGAAAGAGAGAAGUGAACCAGAGAAACACACAUUGUGGUAUAAUACCUGGUA [G51A U62A]
5. GUCCUCUUUCACGUGCGCGUGAAAGAGAGAAGUGAACCAGAGAAACACACAUUGUGGCAUAUUACCUGGUA [G51A U58C]
6. GUCCUCUUUCACGAGCGCGUGAAAGAGAGAAGUGAACCUGAGAAACACACGUUGUGGUAUAUUACCUGGUA [U14A A39U]

1. 0.114
2. 0.214
3. 0.0993
4. 0.137
5. 1.09
6. 0.408

For the 4 variants below, give their self-cleavage values.
1. GUCCUCUUUCACGUGCGCGUAAAAGAGAGAAGUGAACCAUAGAAACACACGUUGUGGUAUAUUACCUGGUA [G21A G40U]
2. GUCCUCUUUCACGUGCGCGUAAAAGAGAGAAGUGAACCAGAGAAACACACGUUGUGGUAUAUUACCUGGUU [G21A A71U]
3. GACCUCUUUCACGUGCGCGUGAAAGAGAGAAGUGAACCAGAGAAACACACGUUGUGGUAUAUUACCUGGGA [U2A U70G]
4. GUCCUCUUUCACGUGCGCGUGAAAGAGAGAAGUGAACCAGAGGAACACACGUUGUGGUAUAUUACCUGCUA [A43G G69C]

1: 0.151; 2: 0.611; 3: 0.224; 4: 0.268
